- Measurement Target: Metabotropic glutamate receptor 4 (Homo sapiens, UniProt Q14833)
- Sequence (Q14833 whole entry): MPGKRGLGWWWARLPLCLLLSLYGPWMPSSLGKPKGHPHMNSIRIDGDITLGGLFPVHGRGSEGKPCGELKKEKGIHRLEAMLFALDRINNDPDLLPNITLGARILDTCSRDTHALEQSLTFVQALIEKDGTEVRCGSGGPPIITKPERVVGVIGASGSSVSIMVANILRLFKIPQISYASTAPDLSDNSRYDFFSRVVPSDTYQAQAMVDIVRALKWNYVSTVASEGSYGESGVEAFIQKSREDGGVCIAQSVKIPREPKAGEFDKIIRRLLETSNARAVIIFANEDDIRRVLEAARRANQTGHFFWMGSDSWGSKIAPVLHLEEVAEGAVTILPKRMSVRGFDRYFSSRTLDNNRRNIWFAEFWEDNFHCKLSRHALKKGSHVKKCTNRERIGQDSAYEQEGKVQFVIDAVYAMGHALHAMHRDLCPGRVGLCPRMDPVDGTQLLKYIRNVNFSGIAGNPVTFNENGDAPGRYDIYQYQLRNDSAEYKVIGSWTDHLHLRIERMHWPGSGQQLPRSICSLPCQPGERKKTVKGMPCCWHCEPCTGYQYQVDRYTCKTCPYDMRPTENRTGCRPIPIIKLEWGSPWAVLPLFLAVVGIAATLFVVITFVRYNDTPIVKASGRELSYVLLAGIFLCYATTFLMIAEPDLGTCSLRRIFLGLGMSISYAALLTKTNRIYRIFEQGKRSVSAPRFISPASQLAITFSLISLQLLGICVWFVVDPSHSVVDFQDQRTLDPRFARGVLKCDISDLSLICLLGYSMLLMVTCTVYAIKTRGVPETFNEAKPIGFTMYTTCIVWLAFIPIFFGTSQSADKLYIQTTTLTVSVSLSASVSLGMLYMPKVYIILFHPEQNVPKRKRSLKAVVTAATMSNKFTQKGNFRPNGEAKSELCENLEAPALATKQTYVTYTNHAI
- Assay Info: Positive allosteric modulation of human mGlu4 receptor expressed in BHK cells assessed as potentiation of glutamate-induced calcium mobilization by FLIPR analysis relative to PHCCC
- Format: functional, cell-based
Readings of Emax for the listed compounds

{"columns": ["Structure String", "Measurement Target", "Emax (%)"],
 "data": [
  ["Fc1ccc(-n2cc(-c3ccnc4ccccc34)cn2)cc1", "Metabotropic glutamate receptor 4 (Homo sapiens, UniProt Q14833)", 110],
  ["c1ccc(-n2cc(-c3ccnc4ccccc34)cn2)nc1", "Metabotropic glutamate receptor 4 (Homo sapiens, UniProt Q14833)", 92],
  ["c1ccc(-n2cc(-c3ccnc4[nH]ccc34)cn2)cc1", "Metabotropic glutamate receptor 4 (Homo sapiens, UniProt Q14833)", 47],
  ["CCOc1ccc2c(-c3cnn(-c4ccccc4)c3)ccnc2c1", "Metabotropic glutamate receptor 4 (Homo sapiens, UniProt Q14833)", 93],
  ["Fc1ccc2c(-c3cnn(-c4ccccc4)c3)ccnc2c1", "Metabotropic glutamate receptor 4 (Homo sapiens, UniProt Q14833)", 120],
  ["Cc1cnccc1-c1cnn(-c2ccccc2)c1", "Metabotropic glutamate receptor 4 (Homo sapiens, UniProt Q14833)", 90]
]}

----------
- Measurement Target: CYP2C9 (Homo sapiens, UniProt P11712)
- Sequence (P11712 whole entry): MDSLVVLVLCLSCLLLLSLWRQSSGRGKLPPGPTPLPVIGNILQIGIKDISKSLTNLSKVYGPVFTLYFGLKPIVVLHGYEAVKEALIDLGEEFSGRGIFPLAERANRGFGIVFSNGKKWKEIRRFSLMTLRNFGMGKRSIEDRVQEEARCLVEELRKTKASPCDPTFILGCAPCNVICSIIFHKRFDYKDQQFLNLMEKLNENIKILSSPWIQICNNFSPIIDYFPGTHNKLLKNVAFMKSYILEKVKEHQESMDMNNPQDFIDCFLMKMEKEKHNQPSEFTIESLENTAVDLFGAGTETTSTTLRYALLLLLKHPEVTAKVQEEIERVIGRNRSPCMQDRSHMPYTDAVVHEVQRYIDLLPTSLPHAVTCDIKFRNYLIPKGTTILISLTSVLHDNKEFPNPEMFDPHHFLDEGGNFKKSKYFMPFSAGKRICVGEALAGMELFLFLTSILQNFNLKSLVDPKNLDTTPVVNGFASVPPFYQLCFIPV
- Assay Info: Inhibition of CYP2C9 at 5 uM
- Type: ADME

{"columns": ["Structure String", "inhibition at 5 µM (%)"],
 "data": [
  ["c1ccc(-n2cc(-c3ccnc4ccccc34)cn2)cc1", 48],
  ["CCN(CC)C(=O)Oc1ccc2c(-c3cnn(-c4ccccc4)c3)ccnc2c1", 88]
]}

----------
- Measurement Target: Metabotropic glutamate receptor 4 (Homo sapiens, UniProt Q14833)
- Assay Info: Positive allosteric modulation of human mGlu4 receptor expressed in BHK cells assessed as potentiation of glutamate-induced calcium mobilization by FLIPR analysis
Experimental Readout: EC50

{"columns": ["Structure String", "Measurement Target", "Experimental Readout", "Reported Result"],
 "data": [
  ["CC(=O)N1CCN(CCOc2ccc3c(-c4cnn(-c5ccccc5)c4)ccnc3c2)CC1", "Metabotropic glutamate receptor 4 (Homo sapiens, UniProt Q14833)", "EC50", "690 nM"],
  ["CCNC(=O)Oc1ccc2c(-c3cnn(-c4ccccc4)c3)ccnc2c1", "Metabotropic glutamate receptor 4 (Homo sapiens, UniProt Q14833)", "EC50", "10000 nM"],
  ["CCOc1ccc2c(-c3cnn(-c4ccccc4)c3)ccnc2c1", "Metabotropic glutamate receptor 4 (Homo sapiens, UniProt Q14833)", "EC50", "540 nM"],
  ["c1ccc(-n2cc(-c3ccnc4cc(OCCCN5CCCCC5)ccc34)cn2)cc1", "Metabotropic glutamate receptor 4 (Homo sapiens, UniProt Q14833)", "EC50", "> 10000 nM"],
  ["O=C(Oc1ccc2c(-c3cnn(-c4ccccc4)c3)ccnc2c1)N1CCCC1", "Metabotropic glutamate receptor 4 (Homo sapiens, UniProt Q14833)", "EC50", "500 nM"],
  ["COCCCOc1ccc2c(-c3cnn(-c4ccccc4)c3)ccnc2c1", "Metabotropic glutamate receptor 4 (Homo sapiens, UniProt Q14833)", "EC50", "250 nM"],
  ["c1ccc(-n2cc(-c3ccnc4ccccc34)cn2)cc1", "Metabotropic glutamate receptor 4 (Homo sapiens, UniProt Q14833)", "EC50", "220 nM"],
  ["c1ccc(-n2cc(-c3ccnc4cc(OCCN5CCOCC5)ccc34)cn2)cc1", "Metabotropic glutamate receptor 4 (Homo sapiens, UniProt Q14833)", "EC50", "1800 nM"],
  ["O=C(Oc1ccc2c(-c3cnn(-c4ccccc4)c3)ccnc2c1)N1CCCCC1", "Metabotropic glutamate receptor 4 (Homo sapiens, UniProt Q14833)", "EC50", "190 nM"],
  ["Clc1ccc2c(-c3cnn(-c4ccccc4)c3)ccnc2c1", "Metabotropic glutamate receptor 4 (Homo sapiens, UniProt Q14833)", "EC50", "590 nM"],
  ["c1ccc(COc2ccc3c(-c4cnn(-c5ccccc5)c4)ccnc3c2)cc1", "Metabotropic glutamate receptor 4 (Homo sapiens, UniProt Q14833)", "EC50", "640 nM"],
  ["c1ccc(-n2cc(-c3c[nH]c4ccccc34)cn2)cc1", "Metabotropic glutamate receptor 4 (Homo sapiens, UniProt Q14833)", "EC50", "2500 nM"],
  ["CN(C)CCOc1ccc2c(-c3cnn(-c4ccccc4)c3)ccnc2c1", "Metabotropic glutamate receptor 4 (Homo sapiens, UniProt Q14833)", "EC50", "> 10000 nM"],
  ["c1ccc(-n2cc(-c3ccnc4ccccc34)cn2)nc1", "Metabotropic glutamate receptor 4 (Homo sapiens, UniProt Q14833)", "EC50", "2100 nM"],
  ["Fc1ccc2c(-c3cnn(-c4ccccc4)c3)ccnc2c1", "Metabotropic glutamate receptor 4 (Homo sapiens, UniProt Q14833)", "EC50", "730 nM"],
  ["Cc1nn(-c2ccccc2)c(C)c1-c1ccnc2ccccc12", "Metabotropic glutamate receptor 4 (Homo sapiens, UniProt Q14833)", "EC50", "840 nM"],
  ["c1ccc(-n2cc(-c3ccnc4[nH]ccc34)cn2)cc1", "Metabotropic glutamate receptor 4 (Homo sapiens, UniProt Q14833)", "EC50", "2700 nM"],
  ["c1csc(-n2cc(-c3ccnc4ccccc34)cn2)c1", "Metabotropic glutamate receptor 4 (Homo sapiens, UniProt Q14833)", "EC50", "4300 nM"],
  ["COCCOc1ccc2c(-c3cnn(-c4ccccc4)c3)ccnc2c1", "Metabotropic glutamate receptor 4 (Homo sapiens, UniProt Q14833)", "EC50", "390 nM"],
  ["c1ccc2c(-c3cn[nH]c3)ccnc2c1", "Metabotropic glutamate receptor 4 (Homo sapiens, UniProt Q14833)", "EC50", "> 10000 nM"],
  ["Oc1ccc2c(-c3cnn(-c4ccccc4)c3)ccnc2c1", "Metabotropic glutamate receptor 4 (Homo sapiens, UniProt Q14833)", "EC50", "> 10000 nM"]
]}
